Tested on: 293T cells
Test: Fluorescent detection of Fluc-mRNA (cell transfection efficiency of LNP formulations)
Assay type: cell-based
Conditions: ratio vs YK-424
Measure: cell transfection efficiency, times that of YK-424
Reply briefly: the number, and no unit.

// known answers, use as guide
CCCCCCCCC(CCCCCCCC)OC(=O)CCCCCN(CCO)CCN(CCO)CCCCCC(=O)OC(CCCCCCCC)CCCCCCCC [YK-401]
1.95
CCCCCCCCC(CCCCCCCC)COC(=O)CCCCCN(CCCO)CCN(CCCO)CCCCCC(=O)OCC(CCCCCCCC)CCCCCCCC [YK-422]
2.23
CCCCCCCCCCCOC(=O)CCCN(CCO)CCN(CCO)CCCCCC(=O)OC(CCCCCCCC)CCCCCCCC [YK-407]
7.07
CCCCCCCCC(CCCCCCCC)COC(=O)CCCCCN(CCCO)CCCN(CCCO)CCCCCC(=O)OCC(CCCCCCCC)CCCCCCCC [YK-423]
2.16
CCCCCCCCC(CCCCCCCC)C(=O)OCCCCCCN(CCO)CCN(CCO)CCCCCCOC(=O)C(CCCCCCCC)CCCCCCCC [YK-402]
1.75

Now for another entry.
Looking up CCCCCCCCC(CCCCCCCC)OC(=O)CCCCCCCN(CCO)CCN(CCO)CCCCCCCC(=O)OC(CCCCCCCC)CCCCCCCC [YK-403] , I found its cell transfection efficiency, times that of YK-424 recorded as 1.82
